In this section, each of the compounds is paired with its reported viability at 168 h, 1000 µM.
test: Trypan blue cell viability, 7 days, fibroblasts; assay type: cell-based; settings: human, 1000 μM, relative to control, read-out: fibroblast viability after 7 days
Peptide text beside a SMILES is read from it.
Answer format: numeric, % implied, no suffix.

{"compound": "CCCCCCCCCCCCCCCC(=O)N[C@@H](Cc1ccc(O)cc1)C(=O)N[C@@H](CCCNC(=N)N)C(=O)N[C@@H](CO)C(=O)N[C@@H](CCCNC(=N)N)C(=O)N[C@@H](CCCCN)C(=O)N[C@H](Cc1ccc(O)cc1)C(=O)N[C@@H](CO)C(=O)N[C@@H](CO)C(=O)N[C@@H](Cc1c[nH]c2ccccc12)C(=O)N[C@@H](Cc1ccc(O)cc1)C(N)=O [P4B, Palmitoyl-YRSRK[*Y]SSWY-amide] (HELM PEPTIDE1{[CCCCCCCCCCCCCCCC(=O)[*:2]].Y.R.S.R.K.[dY].S.S.W.Y.[am]}$$$$V2.0)", "viability at 168 h, 1000 µM (%)": 94.2}

Please find the next compound below.
Prompt: Query: viability at 168 h, 1000 µM; subject: CCCCCCCCCCCCCCCC(=O)N[C@@H](Cc1ccc(O)cc1)C(=O)N[C@@H](CCCNC(=N)N)C(=O)N[C@@H](CO)C(=O)N[C@@H](CCCNC(=N)N)C(=O)N[C@@H](CCCCN)C(=O)N[C@@H](Cc1ccc(O)cc1)C(=O)N[C@@H](CO)C(=O)N[C@@H](CO)C(=O)N[C@@H](Cc1c[nH]c2ccccc12)C(=O)N[C@@H](Cc1ccc(O)cc1)C(N)=O [P4A, Palmitoyl-YRSRKYSSWY-amide] (HELM PEPTIDE1{[CCCCCCCCCCCCCCCC(=O)[*:2]].Y.R.S.R.K.Y.S.S.W.Y.[am]}$$$$V2.0)
Completion: 94.3

Sourced from patent US20180296456A1
